Target: H1047R PIK3CA enzyme (Homo sapiens, UniProt P42336, H1047R)
Sequence (P42336 whole entry H1047R): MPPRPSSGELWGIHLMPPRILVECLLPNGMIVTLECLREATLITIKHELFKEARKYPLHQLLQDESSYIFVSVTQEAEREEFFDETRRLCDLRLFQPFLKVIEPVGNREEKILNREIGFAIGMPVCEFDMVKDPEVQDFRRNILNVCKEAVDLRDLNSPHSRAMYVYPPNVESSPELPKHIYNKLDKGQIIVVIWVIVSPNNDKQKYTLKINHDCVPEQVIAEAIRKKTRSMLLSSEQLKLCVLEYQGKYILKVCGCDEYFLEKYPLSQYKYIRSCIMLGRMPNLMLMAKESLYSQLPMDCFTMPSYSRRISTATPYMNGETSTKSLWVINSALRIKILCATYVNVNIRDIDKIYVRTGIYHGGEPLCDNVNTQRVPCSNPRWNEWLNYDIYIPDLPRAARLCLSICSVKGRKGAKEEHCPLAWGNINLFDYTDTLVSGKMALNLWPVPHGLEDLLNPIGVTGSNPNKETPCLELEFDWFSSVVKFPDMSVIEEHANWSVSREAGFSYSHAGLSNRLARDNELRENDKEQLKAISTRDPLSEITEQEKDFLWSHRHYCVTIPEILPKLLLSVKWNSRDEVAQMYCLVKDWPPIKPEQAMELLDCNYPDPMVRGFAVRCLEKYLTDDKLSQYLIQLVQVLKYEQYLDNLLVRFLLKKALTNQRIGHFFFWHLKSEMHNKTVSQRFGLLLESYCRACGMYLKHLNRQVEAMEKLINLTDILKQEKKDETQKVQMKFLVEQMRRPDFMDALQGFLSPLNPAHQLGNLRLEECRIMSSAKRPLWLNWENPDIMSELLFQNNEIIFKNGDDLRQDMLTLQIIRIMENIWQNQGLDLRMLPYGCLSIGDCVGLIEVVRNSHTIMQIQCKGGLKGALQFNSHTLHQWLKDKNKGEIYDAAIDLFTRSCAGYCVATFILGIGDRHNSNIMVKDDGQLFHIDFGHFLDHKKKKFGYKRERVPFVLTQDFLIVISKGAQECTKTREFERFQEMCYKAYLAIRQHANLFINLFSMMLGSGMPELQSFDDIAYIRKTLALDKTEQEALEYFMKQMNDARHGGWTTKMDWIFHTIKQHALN
Sequence (P27986 whole entry partner): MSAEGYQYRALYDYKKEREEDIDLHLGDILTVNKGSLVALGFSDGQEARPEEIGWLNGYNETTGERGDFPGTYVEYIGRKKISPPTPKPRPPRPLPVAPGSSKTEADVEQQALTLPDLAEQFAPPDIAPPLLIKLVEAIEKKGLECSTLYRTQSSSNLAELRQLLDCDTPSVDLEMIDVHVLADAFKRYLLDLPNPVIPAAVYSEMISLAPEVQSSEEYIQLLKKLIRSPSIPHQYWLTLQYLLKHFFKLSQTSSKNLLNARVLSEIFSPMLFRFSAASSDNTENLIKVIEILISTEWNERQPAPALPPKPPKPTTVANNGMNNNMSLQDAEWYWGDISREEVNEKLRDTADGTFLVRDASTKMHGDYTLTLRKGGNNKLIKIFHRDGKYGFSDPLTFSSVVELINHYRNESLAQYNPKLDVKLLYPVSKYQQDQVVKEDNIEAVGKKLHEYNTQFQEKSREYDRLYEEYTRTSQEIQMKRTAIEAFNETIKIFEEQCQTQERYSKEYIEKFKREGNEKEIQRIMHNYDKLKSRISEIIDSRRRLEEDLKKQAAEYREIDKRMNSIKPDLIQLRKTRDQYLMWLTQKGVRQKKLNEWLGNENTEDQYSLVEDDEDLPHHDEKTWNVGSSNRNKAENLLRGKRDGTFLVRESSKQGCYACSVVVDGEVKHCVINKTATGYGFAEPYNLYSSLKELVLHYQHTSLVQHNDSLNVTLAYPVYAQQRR
Assay: ADP-Glo Biochemical PIK3CA Kinase Assay
pIC50: −log10 of the molar value.
ATTRIBUTE_MEASURED: pIC50

[[record]]
compound = "N#CC1(COc2cc(NC(=O)N3C[C@H](O)c4cc(F)ccc43)c3c(c2)C(=O)N[C@@H]3c2cc(F)ccc2Cl)CC1 (single isomer, unassigned) [Compound I-2554]"
attribute_measured = "pIC50"
result = "6.30 to 7.00"

[[record]]
compound = "O=C(Nc1cc(-c2ncc[nH]2)cc2c1[C@@H](c1cc(F)ccc1Cl)NC2=O)c1cc(F)cc(C(F)(F)F)c1 [Compound I-918]"
attribute_measured = "pIC50"
result = "6.00 to 6.30"

[[record]]
compound = "CN1CCN=C1Nc1cc(NC(=O)c2cc(F)cc(C(F)(F)F)c2)c2c(c1)C(=O)NC2c1cc(F)ccc1Cl (stereo not drawn) [Compound I-2298]"
attribute_measured = "pIC50"
result = "6.30 to 7.00"

[[record]]
compound = "Cc1ccccc1C1NC(=O)c2c(Cl)ncc(NC(=O)c3cc(F)cc(C(F)(F)F)c3)c21 (stereo not drawn) [Compound I-232]"
attribute_measured = "pIC50"
result = "6.30 to 7.00"

[[record]]
compound = "O=C(Nc1cc(Br)cc2c1[C@H](c1cc(Cl)cc(F)c1F)NC2=O)c1cc(F)cc(C(F)(F)F)c1 [Compound I-786]"
attribute_measured = "pIC50"
result = "≥ 7.00"

[[record]]
compound = "O=C(Nc1cc(C(O)c2ccccn2)cc2c1C(c1cc(F)ccc1Cl)NC2=O)c1cc(F)cc(C(F)(F)F)c1 (stereo not drawn) [Compound I-1278]"
attribute_measured = "pIC50"
result = "≥ 7.00"

[[record]]
compound = "Cc1nc(C)c(-c2cc(NC(=O)c3cc(F)cc(Cl)c3)c3c(n2)C(=O)NC3c2cc(F)ccc2Cl)s1 (stereo not drawn) [Compound I-459]"
attribute_measured = "pIC50"
result = "≥ 7.00"

[[record]]
compound = "O=C1N[C@H](c2cc(F)ccc2Cl)c2c(NC(=O)N3C[C@@](O)(C(F)(F)F)c4cc(F)ccc43)cc(-n3ccnn3)cc21 (single isomer, unassigned) [Compound I-2547]"
attribute_measured = "pIC50"
result = "≥ 7.00"

[[record]]
compound = "CC1(Cc2cc(NC(=O)N3C[C@](O)(C(F)(F)F)c4cc(F)ccc43)c3c(c2)C(=O)N[C@H]3c2cc(F)ccc2Cl)COC1 (single isomer, unassigned) [Compound I-2659]"
attribute_measured = "pIC50"
result = "5.00 to 6.00"

[[record]]
compound = "N#CC1(COc2cc(NC(=O)N3CC(O)c4cc(F)ccc43)c3c(c2)C(=O)NC3c2cc(F)ccc2Cl)CC1 (mixture of isomers) [Compound I-2489]"
attribute_measured = "pIC50"
result = "≥ 7.00"

[[record]]
compound = "Nc1cc(NC(=O)N2C[C@@H](O)c3cc(F)ccc32)c2c(c1)C(=O)N[C@@H]2c1cc(F)ccc1Cl (single isomer, unassigned) [Compound I-2410]"
attribute_measured = "pIC50"
result = "≥ 7.00"

[[record]]
compound = "O=C(Nc1cc(-c2cn(C(F)F)cn2)cc2c1[C@@H](c1cc(F)ccc1Cl)NC2=O)c1cc(F)cc(C(F)(F)F)c1 [Compound I-1918]"
attribute_measured = "pIC50"
result = "5.00 to 6.00"

